- assay.overview: Plasma pharmacokinetics of olaparib alone and with PLD
- Type: in vivo, patients
- study.conditions: human, plasma, oral, olaparib Cmax, olaparib 50 mg bid; Day 2+PLD; mean±s.d.
property.label: Cmax (ng/mL)
Numbers only; they are read as ng/mL.

Query: Input O=C(c1cc(Cc2n[nH]c(=O)c3ccccc23)ccc1F)N1CCN(C(=O)C2CC2)CC1 , output reported Cmax.
Result: 1400

----------
- assay.overview: Plasma pharmacokinetics of olaparib alone and with PLD
- Assay type: in vivo, patients
- study.conditions: human, plasma, oral, 50 mg, olaparib AUC0–10 h, olaparib 50 mg; Day 1 alone; n=3; mean±s.d.
property.label: AUC(0-t) (ng·h/mL)
Numbers only; they are read as ng·h/mL.

Query: Input O=C(c1cc(Cc2n[nH]c(=O)c3ccccc23)ccc1F)N1CCN(C(=O)C2CC2)CC1 , output reported AUC(0-t).
Result: 8700
